molecular target: KRas^G12D (Homo sapiens, UniProt P01116, G12D); construct: Biotinylated KRas (corresponding to amino acids 1-169, produced at Accelegan Inc.); biotin (biotinylated); purchased Accelegan Inc; assay: KRas binding assay (TR-FRET tracer displacement), KRas G12D
Sequence (P01116 1-169 isoform P01116-2 G12D): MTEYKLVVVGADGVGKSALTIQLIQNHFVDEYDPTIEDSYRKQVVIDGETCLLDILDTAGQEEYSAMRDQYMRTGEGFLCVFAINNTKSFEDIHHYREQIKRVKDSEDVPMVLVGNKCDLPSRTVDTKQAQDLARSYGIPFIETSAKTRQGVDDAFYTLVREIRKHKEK
Outcome Measure: IC50 (nM)

// solved cases for IC50 follow
Compound	IC50 (nM)
CCc1c(F)ccc2cc(O)cc(-c3ncc4c(NCc5cn(C(=O)N(C)C)nc5NC(=O)C5CC(O)C5)nc(OC[C@@]56CCCN5C[C@H](F)C6)nc4c3F)c12 (stereo partly drawn)	509
CCc1c(F)ccc2cc(O)cc(-c3ncc4c(N5CCC[C@]6(C5)C[C@@H](O)C6)nc(OC[C@@]56CCCN5[C@H](COC(=O)N(C)C)CC6)nc4c3F)c12	3
CCc1c(F)ccc2cc(O)cc(-c3ncc4c(N5CCCC6(C5)NC(=O)NC6=O)nc(N5CC(N(C)C)C5)nc4c3F)c12 (stereo not drawn)	7
CCc1c(F)ccc2cc(O)cc(-c3ncc4c(NCc5cc(C(=O)N(C)C)nn5C5CS(=O)(=O)C5)nc(OC[C@@]56CCCN5C[C@H](F)C6)nc4c3F)c12	5
CCc1c(F)ccc2cc(O)cc(-c3ncc4c(N5CCCO[C@@H](CCO)C5)nc(OC[C@@]56CCCN5C[C@H](F)C6)nc4c3F)c12	5
CCc1c(F)ccc2cc(O)cc(-c3ncc4c(N5CC6CCC(C5)C6C(N)=O)nc(OC[C@@]56CCCN5C[C@H](F)C6)nc4c3F)c12 (stereo partly drawn)	4
CCc1c(F)ccc2cc(O)cc(-c3ncc4c(N5CC6(C)CC(CO)(C5)C6)nc(OC[C@@]56CCCN5C[C@H](F)C6)nc4c3F)c12	1160

I = CC1(O)COCCN(c2nc(OCC34CCCN3CCC4)nc3c(F)c(-c4cc(O)cc(Cl)c4C4CC4)ncc23)C1 (racemic)
II = Oc1cc2ccccc2c(-c2ncc3c(N4C[C@@H]5C[C@H](C4)[C@H](O)C5)nc(OC[C@@]45CCCN4C[C@H](F)C5)nc3c2F)c1Cl
Of I and II , which shows the smaller IC50 value? Lab log: write the label of the selected item as the result.
I
(I: 4 nM, II: 268 nM)

====

biological target: KRas^WT (Homo sapiens, UniProt P01116); construct: Biotinylated KRas (corresponding to amino acids 1-169, produced at Accelegan Inc.); biotin (biotinylated); purchased Accelegan Inc; experiment: KRas binding assay (TR-FRET tracer displacement), KRas WT; settings: TR-FRET tracer displacement, KRas WT
Sequence (P01116 1-169 isoform P01116-2): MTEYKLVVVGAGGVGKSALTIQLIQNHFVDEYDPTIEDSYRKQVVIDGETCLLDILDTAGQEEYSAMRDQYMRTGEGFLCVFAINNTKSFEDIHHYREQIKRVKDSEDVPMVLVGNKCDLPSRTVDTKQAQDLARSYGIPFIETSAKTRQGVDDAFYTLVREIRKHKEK
Outcome Measure: IC50 (nM)

// solved cases for IC50 follow
Molecule	Reported Measurement
CCc1c(F)ccc2cc(O)cc(-c3ncc4c(N5C[C@@H]6C[C@H](C5)[C@H](O)C6)nc(OCC56CC(F)CN5CC(F)C6)nc4c3F)c12 (stereo partly drawn)	8
CCc1c(F)ccc2cc(O)cc(-c3ncc4c(N5CC=CCC5)nc(OC[C@@]56CCCN5C[C@H](F)C6)nc4c3F)c12	4
O=C1NCC2(CCCN(c3nc(OCC45CCCN4CCC5)nc4c(F)c(-c5c6ccccc6cc6[nH]ncc56)ncc34)C2)N1 (stereo not drawn)	13

I = C#Cc1c(F)ccc2cc(O)cc(-c3ncc4c(N5CCC[C@@](C)(O)C5)nc(OC[C@@]56CCCN5[C@@H](CO)CC6)nc4c3F)c12
II = O=C1NCC2(CCCN(c3nc(OC[C@@]45CCCN4C[C@H](F)C5)nc4c(F)c(-c5c6ccccc6cc6[nH]ncc56)ncc34)C2)N1 (stereo partly drawn)
Of I and II , which shows the smaller IC50 value? Lab log: write the label of the selected item as the result.
I
(I: 5 nM, II: 88 nM)

====

target: KRas^G12A (Homo sapiens, UniProt P01116, G12A); construct: Biotinylated KRas (corresponding to amino acids 1-169, produced at Accelegan Inc.); biotin (biotinylated); purchased Accelegan Inc; assay: KRas binding assay (TR-FRET tracer displacement), KRas G12A; conditions: TR-FRET tracer displacement, KRas G12A
Sequence (P01116 1-169 isoform P01116-2 G12A): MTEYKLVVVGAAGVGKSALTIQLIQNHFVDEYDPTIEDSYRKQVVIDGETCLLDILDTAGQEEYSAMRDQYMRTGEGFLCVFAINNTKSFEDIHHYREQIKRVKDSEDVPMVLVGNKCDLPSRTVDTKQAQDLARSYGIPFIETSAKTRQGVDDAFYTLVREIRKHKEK
Outcome Measure: IC50 (nM)

P = CN(C)C(=O)c1cc2n(n1)CCCN(c1nc(OCC34CCCN3CCC4)nc3c(F)c(-c4c(C5CC5)c(Cl)cc5[nH]ncc45)ncc13)C2
Q = Oc1cc(-c2ncc3c(N4C[C@@H]5C[C@H](C4)[C@H](O)C5)nc(OC[C@@]45CCCN4C[C@H](F)C5)nc3c2F)c2ccc(Cl)cc2c1
R = Cc1cc2[nH]ncc2c(-c2ncc3c(N4CCCn5nc(C(=O)N(C)C)cc5C4)nc(OCC45CCCN4CCC5)nc3c2F)c1C
S = Oc1cc(Cl)c(C2CC2)c(-c2ncc3c(N4CCC[C@]5(C4)C[C@@H](O)C5)nc(OCC45CCCN4CCC5)nc3c2F)c1
T = Cc1c(O)cc(-c2ncc3c(N4C[C@@H]5C[C@H](C4)[C@H](O)C5)nc(OC[C@@]45CCCN4C[C@H](F)C5)nc3c2F)c2ccccc12
Ascending by IC50, please: list the molecules accordingly. Write the labels out in the order the request specifies.
S, P, Q, R, T
(S: 8 nM, P: 14 nM, Q: 25 nM, R: 251 nM, T: 8020 nM)

====

Tested on: KRas-mediated phosphorylation of ERK in MKN1 cells
Test: Inhibition of KRas-mediated phosphorylation of ERK (Cisbio HTRF pERK), MKN1 cells
Type: cell-based
Details: Homo sapiens, MKN-1
Procedure: Inhibition of KRas Phosphorylation of ERK (HTRF) by Exemplary Compounds of Formula (I) Cisbio HTRF Advanced PERK Assay Catalog #64AERPEH Day 1: Seed 6,000 cells/well-25 μl/well in 384-well white solid bottom plate; RPM1_10% FBS. Incubate overnight at 37° C./5% CO2. Incubate for 4 hours at room temperature covered. Read HTRF using ClarioStar
Outcome Measure: IC50 (nM)

Compound	IC50 / nM
CCc1c(F)ccc2cc(O)cc(-c3ncc4c(N5CC=CCC5)nc(OC[C@@]56CCCN5C[C@H](F)C6)nc4c3F)c12	0.4
CCc1c(F)ccc2cc(O)cc(-c3ncc4c(N5C[C@@H]6C[C@H](C5)[C@H](O)C6)nc(OC[C@@]56CCCN5C[C@@H](F)C6)nc4c3F)c12	17
O=S1(=O)CCC2(CCCN(c3nc(OC[C@@]45CCCN4C[C@H](F)C5)nc4c(F)c(-c5cc(O)cc6cccc(Cl)c56)ncc34)C2)N1 (some centres unmarked)	2
CCc1c(F)ccc2cc(O)cc(-c3ncc4c(N5C[C@H](F)C[C@@H](OC)C5)nc(OC[C@@]56CCCN5C[C@H](F)C6)nc4c3F)c12	22
C=C1CN2CCCC2(COc2nc(N3C[C@@H]4C[C@H](C3)[C@H](O)C4)c3cnc(-c4cc(O)cc5ccc(F)c(CC)c45)c(F)c3n2)C1 (some centres unmarked)	0.3
CCc1c(F)ccc2cc(O)cc(-c3ncc4c(N5CC6CCC(COC)(C6)C5)nc(OC[C@@]56CCCN5C[C@H](F)C6)nc4c3F)c12 (some centres unmarked)	73

I = C[C@@H]1C[C@@H]1c1c(Cl)cc(O)cc1-c1ncc2c(N3CCCn4nc(C(=O)N(C)C)cc4C3)nc(OCC34CCCN3C/C(=C\F)C4)nc2c1F (some centres unmarked)
II = CCc1c(F)ccc2cc(O)cc(-c3ncc4c(N5CCC[C@@](C)(O)C5)nc(OC[C@]56CCCN5[C@@H](COC)CC6)nc4c3F)c12
// compare measured IC50, left I , right II , return larger Lab log: write the label of the selected item as the result.
II

a = C=C1CN2CCCC2(COc2nc(N3CCCC4(CC(=O)N4)C3)c3cnc(-c4cc(O)cc5ccc(F)c(CC)c45)c(F)c3n2)C1 (centres unmarked)
b = CCc1c(F)ccc2cc(O)cc(-c3ncc4c(N5CCC[C@@](C)(O)C5)nc(OC[C@@]56CCCN5[C@H](COC(=O)N5CCCC5)CC6)nc4c3F)c12
Of a and b , which shows the smaller IC50 value? Lab log: write the label of the selected item as the result.
a
(a: 0.4 nM, b: 1 nM)

I = CCc1c(F)ccc2cc(O)cc(-c3ncc4c(N5C[C@@H]6C[C@H](C5)[C@H](O)C6)nc(OCC56CCCN5C/C(=C\F)C6)nc4c3F)c12 (some centres unmarked)
II = CCc1c(F)ccc2cc(O)cc(-c3ncc4c(N5CCCC6(C[C@H](O)[C@H](O)CO6)C5)nc(OC[C@@]56CCCN5C[C@H](F)C6)nc4c3F)c12 (some centres unmarked)
// compare measured IC50, left I , right II , return larger Lab log: write the label of the selected item as the result.
II
(II: 2870 nM, I: 0.3 nM)

P = O=C1CC2(CCCN(c3nc(OC[C@@]45CCCN4C[C@H](F)C5)nc4c(F)c(-c5cc(O)cc6ccc(F)c(Cl)c56)ncc34)C2)C(=O)N1 (some centres unmarked)
Q = CCc1c(F)ccc2cc(O)cc(-c3ncc4c(N5CC6CCC(CC(=O)N(C)C)(C6)C5)nc(OC[C@@]56CCCN5C[C@H](F)C6)nc4c3F)c12 (some centres unmarked)
R = CCc1c(F)ccc2cc(O)cc(-c3ncc4c(N5CCC[C@@](C)(O)C5)nc(OC[C@@]56CCCN5[C@H](COC(=O)NC(C)C)CC6)nc4c3F)c12
S = Cc1cccc2cc3[nH]ncc3c(-c3ncc4c(N5CCCC6(CNS(=O)(=O)N6)C5)nc(OCC56CCCN5CCC6)nc4c3F)c12 (centres unmarked)
Number of compounds to sort: 4. Sort criterion: IC50, ascending. Write the labels out in the order the request specifies.
R, Q, P, S
(R: 2 nM, Q: 17 nM, P: 123 nM, S: 653 nM)
